Numbers sourced from paper PMC11480844.

B1: H2-Kb / B14 (parent)
chain 1: GEQVEQRPPHLSVREGDSAVIICTYTDPNSYYFFWYKQEPGAGLQLLMKVFSSTEINEGQGFTVLLNKKDKQLSLNLTAAHPGDSAVYFCAVSARGNMGYKLTFGTGTSLLVDP
chain 2: GGIITQTPKFLIGQEGQKLTLKCQQNFNHDTMYWYRQDSGKGLRLIYYSITENDLQKGDLSEGYDASREKKSSFSLTVTSAQKNEMAVFLCASSMGQGASDYTFGSGTRLLVI
chain 3: not shown
chain 4: IQKTPQIQVYSRHPPENGKPNILNCYVTQFHPPHIEIQMLKNGKKIPKVEMSDMSFSKDWSFYILAHTEFTPTETDTYACRVKHDSMAEPKTVYWDRDM
chain 5: SIINFEKL

Variants of: B1
Assay: % of reporter cells activated (NFAT-GFP), raw; note: test concentration or dose not given here
Settings: with B14; scale: % of reporter cells activated
# ratio to parent per record follows
Property label: ratio to parent

>  <Variant>
chain 5 I3G

>  <Property label>
ratio to parent

>  <Reported result>
1.38

$$$$
>  <Variant>
chain 5 E6H

>  <Property label>
ratio to parent

>  <Reported result>
0.853

$$$$
>  <Variant>
chain 5 S1T

>  <Property label>
ratio to parent

>  <Reported result>
1.42

$$$$
>  <Variant>
chain 5 L8H

>  <Property label>
ratio to parent

>  <Reported result>
2.84

$$$$
>  <Variant>
chain 5 K7I

>  <Property label>
ratio to parent

>  <Reported result>
0.96

$$$$
>  <Variant>
chain 5 E6A

>  <Property label>
ratio to parent

>  <Reported result>
0.418

$$$$
>  <Variant>
chain 5 I2R

>  <Property label>
ratio to parent

>  <Reported result>
1.87

$$$$
>  <Variant>
chain 5 L8V

>  <Property label>
ratio to parent

>  <Reported result>
0

$$$$
>  <Variant>
chain 5 K7E

>  <Property label>
ratio to parent

>  <Reported result>
0.622

$$$$
>  <Variant>
chain 5 F5Q

>  <Property label>
ratio to parent

>  <Reported result>
0.582

$$$$
>  <Variant>
chain 5 S1D

>  <Property label>
ratio to parent

>  <Reported result>
1.38

$$$$
>  <Variant>
chain 5 I3V

>  <Property label>
ratio to parent

>  <Reported result>
1.6

$$$$
>  <Variant>
chain 5 L8N

>  <Property label>
ratio to parent

>  <Reported result>
1.16

$$$$
>  <Variant>
chain 5 S1H

>  <Property label>
ratio to parent

>  <Reported result>
1.24

$$$$
>  <Variant>
chain 5 K7F

>  <Property label>
ratio to parent

>  <Reported result>
1.42

$$$$
>  <Variant>
chain 5 I2K

>  <Property label>
ratio to parent

>  <Reported result>
1.04

$$$$
>  <Variant>
chain 5 I3D

>  <Property label>
ratio to parent

>  <Reported result>
1.46

$$$$
>  <Variant>
chain 5 I2M

>  <Property label>
ratio to parent

>  <Reported result>
1.4

$$$$
>  <Variant>
chain 5 I2F

>  <Property label>
ratio to parent

>  <Reported result>
0.849

$$$$
>  <Variant>
chain 5 S1Q

>  <Property label>
ratio to parent

>  <Reported result>
0.858

$$$$
>  <Variant>
chain 5 N4H

>  <Property label>
ratio to parent

>  <Reported result>
0.911

$$$$
>  <Variant>
chain 5 F5D

>  <Property label>
ratio to parent

>  <Reported result>
1.32

$$$$
